For each entry below, report its pIC50 value.
- system tested: Recombinant human HSD17B13 (Homo sapiens (Human), UniProt Q7Z5P4)
- Sequence (Q7Z5P4 20-300): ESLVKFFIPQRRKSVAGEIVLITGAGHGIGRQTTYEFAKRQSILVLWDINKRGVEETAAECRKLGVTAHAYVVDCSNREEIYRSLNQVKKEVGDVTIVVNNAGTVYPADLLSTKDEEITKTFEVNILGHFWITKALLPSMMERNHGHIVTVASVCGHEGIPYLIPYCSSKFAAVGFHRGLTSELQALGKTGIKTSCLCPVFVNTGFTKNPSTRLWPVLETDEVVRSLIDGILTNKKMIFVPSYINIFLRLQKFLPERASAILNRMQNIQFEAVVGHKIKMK
- protocol: HSD17B13 rapid-fire mass spectrometry assay (RF/MS assay)
- condition summary: inhibition of HSD17B13; LTB4 10 μM, NAD+ 0.5 mM, RT 3 h; IC50 ranges A-E
pIC50: −log10 of the molar value.

Worked cases, answers included:
[
  {
    "smiles structure": "O=C(O)c1ccc2c(c1)N(S(=O)(=O)c1ccc(F)cc1)CC2",
    "pIC50": "4.00 to 6.00"
  },
  {
    "smiles structure": "COc1cc(C(=O)O)ccc1NS(=O)(=O)c1csc(C#Cc2ccc(OC)c(OC(F)(F)F)c2)n1",
    "pIC50": "> 7.00"
  },
  {
    "smiles structure": "O=C(O)c1ccc2c(c1)CCCN2S(=O)(=O)c1ccc(F)cc1",
    "pIC50": "4.00 to 6.00"
  }
]

The value of pIC50 recorded for COc1cc(C(=O)O)ccc1NS(=O)(=O)c1ccc(-c2ccc(F)cc2)cc1F when tested on Recombinant human HSD17B13 (Homo sapiens (Human), UniProt Q7Z5P4) reads 6.30 to 7.00

====

For each entry below, report its IC50 value.
- system tested: Recombinant human HSD17B13 (Homo sapiens (Human))
- protocol: HSD17B13 rapid-fire mass spectrometry assay (RF/MS assay)
- condition summary: inhibition of HSD17B13; LTB4 10 μM, NAD+ 0.5 mM, RT 3 h; IC50 ranges A-E

Please give IC50, item by item, for the list that follows.
1. COc1cc(C(=O)O)c(F)cc1NS(=O)(=O)c1csc(-c2ccc(C3=CCC(C)(C)CC3)nc2)n1
2. COc1cc(C(=O)O)ccc1NS(=O)(=O)c1csc2ccccc12
3. COc1cc(C(=O)O)ccc1NS(=O)(=O)c1csc(-c2ccc(C3CCC(OC(F)(F)F)CC3)cc2)n1 (centres unmarked)
4. COc1cc(C(=O)O)ccc1NS(=O)(=O)c1ccc(-c2ccc(-c3ccccc3)cc2)s1
5. COc1cc(C(=O)O)ccc1NS(=O)(=O)c1cnc(-c2ccc(-c3ccc(C(F)(F)F)c(C(F)(F)F)c3)cc2)s1
6. N#Cc1cc(C(=O)O)ccc1NS(=O)(=O)c1cnc(-c2ccc(F)cc2)s1
7. COc1cc(C(=O)O)ccc1NS(=O)(=O)c1cnc(-c2ccc(C3CCC(C)(C)CC3)cc2)s1
8. COc1cc(C(=O)O)ccc1NS(=O)(=O)c1csc(N2CCN(C(=O)OC(C)C)CC2)n1 [Example 309]

Given back:
0.1 to 0.5 µM
0.5 to 1 µM
< 0.1 µM
0.5 to 1 µM
0.1 to 0.5 µM
0.5 to 1 µM
0.1 to 0.5 µM
1 to 100 µM

====

- system tested: Recombinant human HSD17B13 (Homo sapiens (Human), UniProt Q7Z5P4)
- protocol: HSD17B13 rapid-fire mass spectrometry assay (RF/MS assay)
- condition summary: inhibition of HSD17B13; LTB4 10 μM, NAD+ 0.5 mM, RT 3 h; IC50 ranges A-E
pIC50: −log10 of the molar value.
quantity: pIC50

Worked cases, answers included:
[
  {
    "compound": "CC[C@H]1CC[C@H](c2ccc(-c3nc(S(=O)(=O)Nc4ccc(C(=O)O)cc4OC)co3)cc2)CC1 [Example 488]",
    "pIC50": "6.30 to 7.00"
  },
  {
    "compound": "COc1cc(C(=O)O)c(F)cc1NS(=O)(=O)c1csc(-c2ccc(-c3ccc([C@H]4CC[C@@H](C(C)(C)C)CC4)cc3C(F)(F)F)cc2C(F)(F)F)n1 [Example 783]",
    "pIC50": "6.30 to 7.00"
  }
]

Entry under test: COc1cc(C(=O)O)c(F)cc1NS(=O)(=O)c1coc(-c2ccc(C3=CCC(C(C)C)CC3)cc2C(F)(F)F)n1 (stereo not drawn) [Example 672] . Its pIC50 was > 7.00

====

- system tested: Recombinant human HSD17B13 (Homo sapiens (Human), UniProt Q7Z5P4)
- protocol: HSD17B13 rapid-fire mass spectrometry assay (RF/MS assay)
- condition summary: inhibition of HSD17B13; LTB4 10 μM, NAD+ 0.5 mM, RT 3 h; IC50 ranges A-E
- Experimental: HSD17B13 rapid-fire mass spectrometry assay (RF/MS assay). Recombinant human HSD17B13 was expressed and purified from sf9 cells at Charles River Labs (Saffron Walden, UK). […] Leukotriene B4 (335.3) and 12-oxoLeukotriene B4 (333.3) SRM transitions were optimized with Discovery Quant software and extracted ion counts for these analytes were determined. […] By using above method, the inhibition of HSD17B13 was evaluated for the compounds of Formula (I). […]
For each entry below, report its IC50 value.

[
  {
    "smiles structure": "COc1cc(C(=O)O)c(F)cc1NS(=O)(=O)c1csc(-c2ccc(-c3ccc(C(F)(C(F)(F)F)C(F)(F)F)cc3)cc2C(F)(F)F)n1",
    "observed value": "< 0.1 µM"
  }
]

Please give IC50, item by item, for the list that follows.
1. COc1nc(C(=O)O)cnc1NS(=O)(=O)c1cnc(-c2ccc(F)cc2)s1
2. O=C(O)c1ccc(NS(=O)(=O)c2cnc(-c3ccccc3)s2)c(O)c1
3. COc1cc(C(=O)O)ccc1NS(=O)(=O)N1CCN(c2ccccc2)CC1

Given back:
1: 1 to 100 µM; 2: 0.1 to 0.5 µM; 3: 1 to 100 µM

Please give IC50, item by item, for the list that follows.
1. COc1cccc(-c2ccc(S(=O)(=O)Nc3ccc(C(=O)O)cc3OC)s2)c1
2. O=C(O)c1cc(NS(=O)(=O)c2cnc(-c3ccc(F)cc3)s2)co1
3. COc1cc(C(=O)O)c(C)cc1NS(=O)(=O)c1csc(-c2ccc(C3CCC(C)(C)CC3)cc2C(F)(F)F)n1
4. COc1cc(C(=O)O)c(F)cc1NS(=O)(=O)c1ccc2nc(-c3ccc(C4CCC(C)(C)CC4)cc3)sc2c1

Given back:
1. < 0.1 µM
2. 0.1 to 0.5 µM
3. 1 to 100 µM
4. 1 to 100 µM

====

For each entry below, report its IC50 value.
- system tested: Recombinant human HSD17B13 (Homo sapiens (Human))
- protocol: HSD17B13 rapid-fire mass spectrometry assay (RF/MS assay)
- condition summary: inhibition of HSD17B13; LTB4 10 μM, NAD+ 0.5 mM, RT 3 h; IC50 ranges A-E
- Protocol: HSD17B13 rapid-fire mass spectrometry assay (RF/MS assay). Recombinant human HSD17B13 was expressed and purified from sf9 cells at Charles River Labs (Saffron Walden, UK). […] Leukotriene B4 (335.3) and 12-oxoLeukotriene B4 (333.3) SRM transitions were optimized with Discovery Quant software and extracted ion counts for these analytes were determined. […] By using above method, the inhibition of HSD17B13 was evaluated for the compounds of Formula (I). […]

Please give IC50, item by item, for the list that follows.
1. COc1cc(C(=O)O)c(F)cc1NS(=O)(=O)c1csc(-c2ccc([C@H]3CC[C@@H](C(F)(F)F)CC3)c(F)c2C)n1
2. COc1cc(C(=O)O)ccc1NS(=O)(=O)c1ccc(C#CC2CCCC2)c(F)c1

Given back:
< 0.1 µM
< 0.1 µM

====

- system tested: Recombinant human HSD17B13 (Homo sapiens (Human), UniProt Q7Z5P4)
- protocol: HSD17B13 rapid-fire mass spectrometry assay (RF/MS assay)
- condition summary: inhibition of HSD17B13; LTB4 10 μM, NAD+ 0.5 mM, RT 3 h; IC50 ranges A-E
pIC50: −log10 of the molar value.
quantity: pIC50

Worked cases, answers included:
[
  {
    "smiles structure": "COc1cc(C(=O)O)c(F)cc1NS(=O)(=O)c1csc(-c2ccc(-c3ccc4cnccc4c3)cc2)n1",
    "pIC50": "6.30 to 7.00"
  },
  {
    "smiles structure": "O=C(O)c1cc2c(cc1F)N(S(=O)(=O)c1ccc(F)cc1)CCC2",
    "pIC50": "4.00 to 6.00"
  },
  {
    "smiles structure": "COCCOc1c(C2CCC(C)(C)CC2)ccc(-c2nc(S(=O)(=O)Nc3cc(F)c(C(=O)O)cc3OC)cs2)c1F",
    "pIC50": "6.30 to 7.00"
  }
]

Shifting focus to the compound that follows.
The value of pIC50 recorded for COc1ccc(NS(=O)(=O)c2cnc(-c3ccc(F)cc3)s2)cc1 when tested on Recombinant human HSD17B13 (Homo sapiens (Human), UniProt Q7Z5P4) reads 4.00 to 6.00

====

For each entry below, report its pIC50 value.
- system tested: Recombinant human HSD17B13 (Homo sapiens (Human))
- protocol: HSD17B13 rapid-fire mass spectrometry assay (RF/MS assay)
- condition summary: inhibition of HSD17B13; LTB4 10 μM, NAD+ 0.5 mM, RT 3 h; IC50 ranges A-E
pIC50: −log10 of the molar value.

[
  {
    "smiles structure": "COc1c(NS(=O)(=O)c2csc(-c3ccc([C@H]4CC[C@H](C(F)(F)F)CC4)cc3)n2)ccc2c(O)cccc12",
    "pIC50": "4.00 to 6.00"
  },
  {
    "smiles structure": "COc1cc(C(=O)O)c(F)cc1NS(=O)(=O)c1csc(-c2ccc(-c3ccncc3)cc2)n1",
    "pIC50": "6.30 to 7.00"
  },
  {
    "smiles structure": "O=C(O)Cc1ccc(CNS(=O)(=O)c2cnc(-c3ccc(F)cc3)s2)cc1",
    "pIC50": "< 4.00"
  }
]

Shifting focus to the compound that follows.
Entry under test: COc1cc(C(=O)O)ccc1NS(=O)(=O)c1csc(NCc2ccccc2)n1 . Its pIC50 was 4.00 to 6.00
